# protocol.summary: MM1S cell viability effects, profiling panel, calcein-AM fluorescence, 48 h, basal (AID 1165);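 further: viability of MM1S multiple myeloma cells under basal unstimulated conditions; test concentration not given here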
# measurement.setup: higher = more signal
test.readout: z-score
Give the value as a plain number.

For orientation, consider the following solved cases.
COCCOC(=O)N1C(=O)[C@@]2(c3cc(C#CC4=CCCCC4)ccc31)[C@H](c1ccc(OCCO)cc1)N1[C@H](c3ccccc3)[C@H](c3ccccc3)OC(=O)[C@H]1[C@@H]2C(=O)N1CCN(c2ncccn2)CC1: -0.759
COC(=O)c1c(CC[C@@H](CO)NC(=O)N2CCC[C@H]2Cn2cc(Cc3ccccc3)nn2)oc(C(C)=O)c1C(=O)OC: 0.823
COc1ccc(CCNC(=O)[C@@H]2c3ccccc3C(=O)N(Cc3cc(C(F)(F)F)cc(C(F)(F)F)c3)[C@H]2c2ccc(CO)cc2)cc1: -1.4
Cc1cc(C)c(C(O)C2C=CC3C(=O)N(c4ccccc4)C(=O)C3N2Nc2ccc(C(C)C)cc2)c(C)c1 (stereo not drawn): -0.0101
C=CC[C@]1(C(=O)O)COC(c2ccc(OCCCO)cc2)=N1: -0.0046

Lab note: O=C1NC(=O)C2C1C=CC(C(O)c1ccco1)N2Nc1ccccn1 (stereo not drawn) gave z-score of -0.0456

Lab note: C=CCOC(=O)[C@H]1[C@@H]2C(=O)O[C@@H](c3ccccc3)[C@@H](c3ccccc3)N2[C@@H](c2ccc(OCCOC(=O)[C@@H]3C[C@@H]4C(=O)N5CCC[C@H]5C(=O)N4[C@@H]3c3ccc(O)cc3)cc2)[C@]12C(=O)Nc1ccc(I)cc12 gave z-score of 0.0967

Lab note: C=CCNC(=O)[C@H]1[C@@H]2C(=O)O[C@@H](c3ccccc3)[C@@H](c3ccccc3)N2[C@@H](c2ccc(O)cc2)[C@]12C(=O)N(C(=O)OCCOC)c1ccccc12 gave z-score of -1.79

Lab note: CCOC(=O)c1ccc(NC(=O)O[C@H]2[C@H](OC(=O)Nc3ccc4c(c3)OCO4)[C@H](OC(=O)Nc3ccc4c(c3)OCO4)[C@@H](OC)O[C@@H]2CO)cc1 gave z-score of -0.982

Lab note: C=CC[C@@]1(C(=O)N2CCOCC2)N=C(c2ccc(OCCCO)cc2)O[C@@H]1c1ccccc1CN=[N+]=[N-] gave z-score of -0.909

Lab note: COC(=O)[C@@]1(Cc2ccc(F)cc2)[C@H]2c3cc(C(=O)N4CCCC4)n(CCN4CNCC4=O)c3C[C@H]2CN1C(=O)c1ccccc1 gave z-score of -0.0244

Lab note: O=C(NCC(F)(F)F)[C@@H]1c2ccccc2C(=O)N(Cc2ccc(OC(F)(F)F)cc2)[C@H]1c1ccc(CO)cc1 gave z-score of -0.404

Lab note: CC(C)[Si](C#C[Si](C(C)C)(C(C)C)C(C)C)(O[C@H](C)c1cn([C@H](CO)Cc2ccccc2)nn1)C(C)C gave z-score of -2.37
